Assay: Pharmacokinetic study of 15 LJF components in plasma of RSV-infected mice after oral LJF extract (UHPLC-QQQ MS)
Format: in vivo
Settings: mouse; RSV mice plasma, oral LJF extract 12.0 g/kg, n = 6; read-out: Tmax
The following molecules are listed with their measured Tmax values.
The response must be a number in h with no trailing unit.

What does the data say about its Tmax? Entry: O=C(C=Cc1ccc(O)c(O)c1)OC1C(O)CC(O)(C(=O)O)CC1O (stereo not shown) 2

Give the measured Tmax of "O=C(/C=C/c1ccc(O)c(O)c1)O[C@@H]1C[C@](O)(C(=O)O)C[C@@H](O)[C@H]1O" . 2

What value of measured Tmax is listed for "O=c1cc(-c2ccc(O)c(O)c2)oc2cc(O)cc(O)c12" ? 2

Recorded Tmax for "C=C[C@H]1[C@H](O[C@@H]2O[C@H](CO)[C@@H](O)[C@H](O)[C@H]2O)OC=C2C(=O)OCC[C@]21O" , please? 1

Which value of Tmax has been reported for C=C[C@H]1[C@H](O[C@@H]2O[C@H](CO)[C@@H](O)[C@H](O)[C@H]2O)OC=C2C(=O)OC(O)C[C@H]21 (stereo partly shown) in the records? 2

// returns reported Tmax for input "O=C(O)/C=C/c1ccc(O)c(O)c1" 2

Suppose we examine the molecule O=C(C=Cc1ccc(O)c(O)c1)OC1CC(O)(C(=O)O)CC(O)C1OC(=O)C=Cc1ccc(O)c(O)c1 (stereo not shown) ; what Tmax value has been reported? 2

###

Experiment: Pharmacokinetic study of 15 LJF components in plasma of RSV-infected mice after oral LJF extract (UHPLC-QQQ MS)
Type: in vivo
Conditions: mouse, in vivo, po, 12 g/kg, MRT(0–t)
assay.metric: MRT last
I'd appreciate it if you included the unit after the number.

Which MRT last is reported for this compound? C=C[C@H]1[C@H](O[C@@H]2O[C@H](CO)[C@@H](O)[C@H](O)[C@H]2O)OC=C2C(=O)OCC[C@H]21 [Sweroside] 7.17 h

###

Test: Pharmacokinetic study of 15 LJF components in plasma of RSV-infected mice after oral LJF extract (UHPLC-QQQ MS)
Format: in vivo
Conditions: mouse, plasma, po, 12 g/kg, RSV mice plasma, oral LJF extract 12.0 g/kg, n = 6; read-out: T1/2 (converted)
assay.metric: half-life (h)
Unit h implied. Number only.

compound: O=c1cc(-c2ccc(O)c(O)c2)oc2cc(O)cc(O)c12
assay.metric: half-life
result.number: 1.96

compound: O=C(C=Cc1ccc(O)c(O)c1)OC1CC(O)(C(=O)O)CC(O)C1OC(=O)C=Cc1ccc(O)c(O)c1 (stereo not drawn)
assay.metric: half-life
result.number: 26.9

What half-life value was documented for this compound, "O=C(O)/C=C/c1ccc(O)c(O)c1" ? 7.92
